The compounds listed here are annotated with their composite z-score.
- method-description: binders of probe aFSTL3 on microarray, primary screen, stem cell growth factor project, biochemical, small-molecule microarray, fluorescence 635/667 (AID 1064);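 further: measures binding of the biotinylated anti-FSTL3 antibody to printed compounds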
- test-settings: higher = more signal
No unit in the answer, only the number.

Below, each entry is followed by its recorded composite z-score result.
C=CCNC(=O)[C@@H]1[C@H]2C(=O)O[C@H](c3ccccc3)[C@H](c3ccccc3)N2[C@H](c2ccc(OCCO)cc2)[C@@]12C(=O)Nc1ccccc12
0.511
NC(=O)NCC#Cc1ccc2c(c1)[C@]1(C(=O)N2)[C@H](C(=O)NC[C@H](O)c2ccccc2)[C@H]2C(=O)O[C@H](c3ccccc3)[C@H](c3ccccc3)N2[C@@H]1c1ccc(O)cc1
-0.261

Then this compound:
Lookup: Indicate the recorded composite z-score value for this compound: C=C(COC)C(=O)CC[C@H](OC(C)=O)c1cccc(OCCO)c1
Found: -0.0206

src = PubChem BioAssay
